Reference for the values: patent US12162890B2

study-system: HEK293 cells with stable expression of the GRIN1 gene and tetracycline-inducible expression of the GRIN2B gene (NMDA receptor, NR2B) (Homo sapiens)
Sequence (Q13224 27-1484, other chains not shown): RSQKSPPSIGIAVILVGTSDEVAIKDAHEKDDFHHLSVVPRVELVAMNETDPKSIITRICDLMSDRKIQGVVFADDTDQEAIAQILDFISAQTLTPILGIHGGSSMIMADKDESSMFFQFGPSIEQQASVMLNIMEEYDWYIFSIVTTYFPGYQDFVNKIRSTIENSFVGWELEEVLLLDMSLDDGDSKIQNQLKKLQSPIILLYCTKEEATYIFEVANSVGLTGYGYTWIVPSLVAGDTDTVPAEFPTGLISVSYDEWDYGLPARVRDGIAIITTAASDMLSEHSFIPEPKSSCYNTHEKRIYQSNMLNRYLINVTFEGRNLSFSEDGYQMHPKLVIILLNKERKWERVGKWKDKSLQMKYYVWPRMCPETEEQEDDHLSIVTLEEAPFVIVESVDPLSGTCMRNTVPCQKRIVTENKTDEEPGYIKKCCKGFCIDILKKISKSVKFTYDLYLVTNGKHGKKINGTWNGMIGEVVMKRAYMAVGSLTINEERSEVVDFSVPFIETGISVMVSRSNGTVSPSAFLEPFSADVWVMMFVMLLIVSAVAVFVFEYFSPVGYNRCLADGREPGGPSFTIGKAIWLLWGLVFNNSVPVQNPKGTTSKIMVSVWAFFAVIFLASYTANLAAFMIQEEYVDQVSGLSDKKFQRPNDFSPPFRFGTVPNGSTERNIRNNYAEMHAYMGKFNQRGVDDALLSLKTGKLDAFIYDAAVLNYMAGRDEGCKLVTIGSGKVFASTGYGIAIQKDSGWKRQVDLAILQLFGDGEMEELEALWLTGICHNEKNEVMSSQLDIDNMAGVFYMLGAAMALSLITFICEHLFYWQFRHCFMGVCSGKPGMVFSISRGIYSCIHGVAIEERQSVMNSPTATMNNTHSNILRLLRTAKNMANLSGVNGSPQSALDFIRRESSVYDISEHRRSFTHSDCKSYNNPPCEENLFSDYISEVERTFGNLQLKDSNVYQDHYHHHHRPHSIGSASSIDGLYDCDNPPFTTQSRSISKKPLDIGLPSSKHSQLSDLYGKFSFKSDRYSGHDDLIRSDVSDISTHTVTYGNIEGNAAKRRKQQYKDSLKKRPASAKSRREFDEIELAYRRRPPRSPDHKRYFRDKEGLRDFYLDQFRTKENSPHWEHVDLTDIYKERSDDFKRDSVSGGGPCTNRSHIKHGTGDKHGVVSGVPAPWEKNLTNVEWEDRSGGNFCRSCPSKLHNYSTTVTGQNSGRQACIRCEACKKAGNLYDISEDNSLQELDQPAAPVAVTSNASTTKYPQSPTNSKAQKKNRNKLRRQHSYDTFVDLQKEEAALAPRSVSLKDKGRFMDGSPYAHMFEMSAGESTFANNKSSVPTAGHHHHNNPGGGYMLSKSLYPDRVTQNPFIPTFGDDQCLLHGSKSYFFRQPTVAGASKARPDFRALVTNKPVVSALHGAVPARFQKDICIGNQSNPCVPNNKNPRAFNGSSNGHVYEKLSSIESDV
assay-explanation: Fluo-8 Ca2+ flux assay: reversal of Ro 25-6981-mediated suppression of the Ca2+ response to co-agonist (glutamate/glycine)
Format: cell-based
test-context: reversal of the Ro 25-6981 suppression of the Ca2+ response to co-agonist (glutamate/glycine)
Kind request: treat 40% as inclusive, so Response Recovered (%) at 40% or higher is True, anything lower is False.

Inquiry: Test whether the compound O=C(Cn1cnc2ccn(-c3ccc(Cl)cc3)c2c1=O)N1CCCC1C(F)(F)F (stereo not shown) records Response Recovered (%) of 40% or higher.
Reply text: False

Inquiry: Test whether the compound `CC1(F)CN(C(=O)Cn2ccc3c(c(-c4ccc(F)c(Cl)c4)cn3C3COC3)c2=O)C1` records Response Recovered (%) of 40% or higher.
Reply text: True

Inquiry: Test whether the compound O=C(Cn1ccc2[nH]cc(-c3ccc(Cl)c(C(F)(F)F)c3)c2c1=O)N1CCC(F)C1 (stereo not shown) records Response Recovered (%) of 40% or higher.
Reply text: True

Inquiry: Test whether the compound CN(C)CCn1cc(-c2ccc(F)c(Cl)c2)c2c(=O)n(CC(=O)N3CCC(F)C3)ccc21 (stereo not shown) records Response Recovered (%) of 40% or higher.
Reply text: False

Inquiry: Test whether the compound `O=C(Cn1cnc2c(c(-c3ccc(Cl)c(C(F)(F)F)c3)cn2C2CC2)c1=O)N1CCCC1` records Response Recovered (%) of 40% or higher.
Reply text: True

Inquiry: Test whether the compound `CC1(N)CN(C(=O)Cn2ccc3scc(-c4ccc(F)c(C(F)(F)F)c4)c3c2=O)C1` records Response Recovered (%) of 40% or higher.
Reply text: True

Inquiry: Test whether the compound O=C(Cn1ccc2scc(-c3cnc(Cl)c(C(F)(F)F)c3)c2c1=O)N1CC(F)C(F)C1 (stereo not shown) records Response Recovered (%) of 40% or higher.
Reply text: True

Inquiry: Test whether the compound `Cn1cnc(-n2cc(-c3ccc(F)c(C(F)(F)F)c3)c3c(=O)n(CC(=O)N4CC(C)(F)C4)ccc32)n1` records Response Recovered (%) of 40% or higher.
Reply text: True

----------
study-system: HEK293 cells with stable expression of the GRIN1 gene and tetracycline-inducible expression of the GRIN2B gene (NMDA receptor, NR2B) (Homo sapiens)
assay-explanation: Fluo-8 Ca2+ flux assay: reversal of Ro 25-6981-mediated suppression of the Ca2+ response to co-agonist (glutamate/glycine)
Format: cell-based
test-context: reversal of the Ro 25-6981 suppression of the Ca2+ response to co-agonist (glutamate/glycine)
Please assign No whenever Response Recovered (%) is at or above 30%, and Yes whenever it is below.

# example entries with known answers
[
  {
    "molecule": "O=C(Cn1ccc2scc(-c3cnc(F)c(Cl)c3)c2c1=O)N1CC(F)C(F)C1 (stereo not shown)",
    "category-label": "Yes"
  },
  {
    "molecule": "CCC1(F)CN(C(=O)Cn2ccc3scc(-c4ccc(F)c(C(F)(F)F)c4)c3c2=O)C1",
    "category-label": "No"
  },
  {
    "molecule": "O=C(Cn1ccc2scc(-c3ccc(F)c(Cl)c3)c2c1=O)N1CC(F)(F)C1",
    "category-label": "No"
  },
  {
    "molecule": "O=C(Cn1cc(CN2CCC2)c2scc(-c3ccc(F)c(Cl)c3)c2c1=O)N1CCC(F)C1 (stereo not shown)",
    "category-label": "No"
  },
  {
    "molecule": "CC1(F)CN(C(=O)Cn2ccn3ccc(-c4ccc(F)c(C(F)(F)F)c4)c3c2=O)C1",
    "category-label": "No"
  },
  {
    "molecule": "N#Cc1cn(CC(=O)N2CCCC2)c(=O)c2c(-c3ccc(F)c(C(F)(F)F)c3)csc12",
    "category-label": "No"
  },
  {
    "molecule": "O=C(Cn1cnc2[nH]cc(-c3ccc(F)c(Cl)c3)c2c1=O)N1CCC(F)C1 (stereo not shown)",
    "category-label": "No"
  },
  {
    "molecule": "Cc1cn(CC(=O)N2CCC(F)C2)c(=O)n2c(-c3ccc(Cl)c(Cl)c3)cnc12 (stereo not shown)",
    "category-label": "Yes"
  },
  {
    "molecule": "O=C(Cn1cnc2snc(-c3ccc(Cl)cc3)c2c1=O)N1CC(F)(F)C1",
    "category-label": "Yes"
  },
  {
    "molecule": "O=C(Cn1ncc2scc(-c3ccc(Cl)c(C(F)(F)F)c3)c2c1=O)N1CCC(F)C1 (stereo not shown)",
    "category-label": "Yes"
  }
]

Inquiry: # strict comparison: is reported Response Recovered (%) < 30%? input = `O=C(Cn1ccn2ncc(-c3ccc(Cl)c(Cl)c3)c2c1=O)N1CC(F)(F)C1`
Reply text: No

Inquiry: # strict comparison: is reported Response Recovered (%) < 30%? input = `O=C(Cn1cc(N2CCCC2)c2scc(-c3ccc(F)c(C(F)(F)F)c3)c2c1=O)N1CCCC1`
Reply text: Yes

Inquiry: # strict comparison: is reported Response Recovered (%) < 30%? input = O=C(Cn1cnc2csc(-c3ccc(Cl)cc3)c2c1=O)N1CCCC1C(F)(F)F (stereo not shown)
Reply text: Yes

Inquiry: # strict comparison: is reported Response Recovered (%) < 30%? input = `C[Si](C)(C)CCOCn1cc(-c2ccc(Cl)c(C(F)(F)F)c2)c2c(=O)n(CC(=O)N3CC(F)(F)C3)ccc21`
Reply text: Yes

Inquiry: # strict comparison: is reported Response Recovered (%) < 30%? input = O=C(Cn1ccc2[nH]cc(-c3cnc(Cl)c(C(F)(F)F)c3)c2c1=O)N1CC(F)C(F)C1 (stereo not shown)
Reply text: No
